system: human TGF-beta1 mRNA; test: Dose-dependent antisense inhibition of human TGF-beta1 in HuVEC cells, Lipofectamine 2000, 0.9375-30 nM (Example 3); type: cell-based; details: 15 nM, Lipofectamine 2000
In the oligonucleotide strings, read from the 5' end, every base follows the letter of its sugar. An asterisk marks phosphorothioate; unmarked linkages are phosphodiester. Other units and linkages are bracketed, terminal groups are in braces. A string of capitals states the bases alone. e = 2'-O-(2-methoxyethyl) (MOE); [5mC] = 5-methylcytosine; d = 2'-deoxy (DNA)
Please go through the items and note down their percent inhibition of TGF-beta1.
Reply with just the number (in %).

Would you mind telling me what percent inhibition of TGF-beta1 value was observed for 414102 (antisense eT*eT*dT*dG*dA*dA*d[5mC]*dT*dA*d[5mC]*dA*dT*dG*dG*dG*eT*e[5mC]*e[5mC]*eT*e[5mC]) [compound 414102] ?
87

Similarly, 414040 (antisense e[5mC]*eT*d[5mC]*dT*d[5mC]*dT*d[5mC]*d[5mC]*dA*dT*d[5mC]*dT*dT*dT*dA*eA*eT*eG*eG*eG) [compound 414040] ?
95

Likewise for 414037 (antisense eG*eG*dG*dT*dG*dT*d[5mC]*d[5mC]*dT*dT*dA*dA*dA*dT*dA*e[5mC]*eA*eG*e[5mC]*e[5mC]) [compound 414037] ?
93

Same thing, different substance: 414058 (antisense eA*eG*dG*dT*d[5mC]*dA*dA*dG*d[5mC]*d[5mC]*dA*dT*dG*dT*dG*eG*e[5mC]*eA*e[5mC]*e[5mC]) [compound 414058]
87

Also need 414035 (antisense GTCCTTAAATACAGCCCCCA; sugars from the 5' end e2 d13 e5, backbone and methylation of C not given here) [compound 414035] , thanks.
95

====

tested on: human TGF-beta1 mRNA; test: Dose-dependent confirmation of antisense inhibition of human TGF-beta1 in HuVEC cells after large-scale synthesis, Lipofectamine 2000, 0.007-15 nM (Example 5); format: cell-based; settings: 0.062 nM, Lipofectamine 2000
In the oligonucleotide strings, read from the 5' end, every base follows the letter of its sugar. An asterisk marks phosphorothioate; unmarked linkages are phosphodiester. Other units and linkages are bracketed, terminal groups are in braces. A string of capitals states the bases alone. e = 2'-O-(2-methoxyethyl) (MOE); [5mC] = 5-methylcytosine; d = 2'-deoxy (DNA)
observation type: percent inhibition of TGF-beta1 (%)
Write the value in % as a bare number.

Suppose we examine the substance 414036 (antisense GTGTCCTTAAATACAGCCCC; sugars from the 5' end e2 d13 e5, backbone and methylation of C not given here) [compound 414036] ; what percent inhibition of TGF-beta1 value has been reported?
41

Param item: 413982 (antisense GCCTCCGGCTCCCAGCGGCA; sugars from the 5' end e2 d13 e5, backbone and methylation of C not given here) [compound 413982]
31

Same for 414035 (antisense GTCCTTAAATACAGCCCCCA; sugars from the 5' end e2 d13 e5, backbone and methylation of C not given here) [compound 414035]
45

Record: 414040 (antisense e[5mC]*eT*d[5mC]*dT*d[5mC]*dT*d[5mC]*d[5mC]*dA*dT*d[5mC]*dT*dT*dT*dA*eA*eT*eG*eG*eG) [compound 414040]
58

====

tested on: human TGF-beta1 mRNA; experiment: Dose-dependent confirmation of antisense inhibition of human TGF-beta1 in HuVEC cells after large-scale synthesis, Lipofectamine 2000, 0.007-15 nM (Example 5); format: cell-based; settings: 0.185 nM, Lipofectamine 2000
In the oligonucleotide strings, read from the 5' end, every base follows the letter of its sugar. An asterisk marks phosphorothioate; unmarked linkages are phosphodiester. Other units and linkages are bracketed, terminal groups are in braces. A string of capitals states the bases alone. e = 2'-O-(2-methoxyethyl) (MOE); [5mC] = 5-methylcytosine; d = 2'-deoxy (DNA)
Please respond with reported percent inhibition of TGF-beta1 for every item in the list.
Express your answer in %, writing the number without its unit.

What percent inhibition of TGF-beta1 value was documented for this substance, 413982 (antisense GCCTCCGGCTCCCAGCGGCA; sugars from the 5' end e2 d13 e5, backbone and methylation of C not given here) [compound 413982] ?
56

Proceed to 414036 (antisense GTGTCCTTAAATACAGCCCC; sugars from the 5' end e2 d13 e5, backbone and methylation of C not given here) [compound 414036]
58

Try 414035 (antisense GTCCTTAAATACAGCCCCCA; sugars from the 5' end e2 d13 e5, backbone and methylation of C not given here) [compound 414035] next.
59

Also need 414040 (antisense e[5mC]*eT*d[5mC]*dT*d[5mC]*dT*d[5mC]*d[5mC]*dA*dT*d[5mC]*dT*dT*dT*dA*eA*eT*eG*eG*eG) [compound 414040] , thanks.
76

====

system: human TGF-beta1 mRNA; test: Dose-dependent antisense inhibition of human TGF-beta1 in HuVEC cells, Lipofectamine 2000, 0.9375-30 nM (Example 3); type: cell-based; details: Lipofectamine 2000, Example 3
In the oligonucleotide strings, read from the 5' end, every base follows the letter of its sugar. An asterisk marks phosphorothioate; unmarked linkages are phosphodiester. Other units and linkages are bracketed, terminal groups are in braces. A string of capitals states the bases alone. e = 2'-O-(2-methoxyethyl) (MOE); [5mC] = 5-methylcytosine; d = 2'-deoxy (DNA)
observation type: IC50 (nM)
Just the number in nM, nothing appended.

Would you mind telling me what IC50 value was observed for 414102 (antisense eT*eT*dT*dG*dA*dA*d[5mC]*dT*dA*d[5mC]*dA*dT*dG*dG*dG*eT*e[5mC]*e[5mC]*eT*e[5mC]) [compound 414102] ?
1.42

Similarly, 414022 (antisense eG*eG*dG*d[5mC]*dT*d[5mC]*d[5mC]*dG*dG*dT*dT*d[5mC]*dT*dG*d[5mC]*eA*e[5mC]*eT*e[5mC]*eT) [compound 414022] ?
1.67

====

test system: human TGF-beta1 mRNA; assay: Antisense inhibition of human TGF-beta1 mRNA in HuVEC cells, single 10 nM dose, Lipofectamine 2000 (Example 2); type: cell-based; details: 10 nM oligonucleotide, HuVEC, relative to untreated control cells; gapmers targeted to SEQ ID NO: 1
In the oligonucleotide strings, read from the 5' end, every base follows the letter of its sugar. An asterisk marks phosphorothioate; unmarked linkages are phosphodiester. Other units and linkages are bracketed, terminal groups are in braces. A string of capitals states the bases alone. e = 2'-O-(2-methoxyethyl) (MOE); [5mC] = 5-methylcytosine; d = 2'-deoxy (DNA)
observation type: % inhibition
Give the value; after it, write the unit.

Dear colleague, I am looking for the recorded % inhibition of the following substance: 414043 (antisense e[5mC]*e[5mC]*dT*dT*dG*dA*dT*dG*d[5mC]*d[5mC]*dG*dG*dG*d[5mC]*dA*eA*eA*eG*eG*eA) [compound 414043]
64%

Follow-up entry: 414030 (antisense e[5mC]*eT*dA*dA*dG*dG*d[5mC]*dG*dA*dA*dA*dG*d[5mC]*d[5mC]*d[5mC]*eT*e[5mC]*eA*eA*eT) [compound 414030]
60%

# iterate: 414032 (antisense eG*eG*dG*dT*dT*dA*dT*dG*d[5mC]*dT*dG*dG*dT*dT*dG*eT*eA*e[5mC]*eA*eG) [compound 414032]
80%

====

Test system: human TGF-beta1 mRNA
Experiment: Dose-dependent confirmation of antisense inhibition of human TGF-beta1 in HuVEC cells, electroporation (Example 6)
Assay type: cell-based
Conditions: 10.00 nM oligonucleotide
Procedure: The gapmers from Example 5 (see Table 5) were also tested at various doses in HuVEC cells using electroporation as the transfection reagent. […] After a recovery period of approximately 16 hours, RNA was isolated from the cells and TGF-beta1 mRNA levels were measured by quantitative real-time PCR. TGF-beta1 mRNA levels were adjusted according to total RNA content, as measured by RIBOGREEN®. […]
In the oligonucleotide strings, read from the 5' end, every base follows the letter of its sugar. An asterisk marks phosphorothioate; unmarked linkages are phosphodiester. Other units and linkages are bracketed, terminal groups are in braces. A string of capitals states the bases alone. e = 2'-O-(2-methoxyethyl) (MOE); [5mC] = 5-methylcytosine; d = 2'-deoxy (DNA)
observation type: percent inhibition of TGF-beta1 mRNA relative to untreated control cells (%)
Your answer is read as %, so omit the unit and give the number.

Field request: percent inhibition of TGF-beta1 mRNA relative to untreated control cells | item: 414040 (antisense e[5mC]*eT*d[5mC]*dT*d[5mC]*dT*d[5mC]*d[5mC]*dA*dT*d[5mC]*dT*dT*dT*dA*eA*eT*eG*eG*eG) [compound 414040]
94

Query 413982 (antisense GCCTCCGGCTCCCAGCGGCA; sugars from the 5' end e2 d13 e5, backbone and methylation of C not given here) [compound 413982] next
93

What about this substance? 414036 (antisense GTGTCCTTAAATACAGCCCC; sugars from the 5' end e2 d13 e5, backbone and methylation of C not given here) [compound 414036]
94

One more substance: 414035 (antisense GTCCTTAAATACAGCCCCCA; sugars from the 5' end e2 d13 e5, backbone and methylation of C not given here) [compound 414035]
94

# credit: patent US20110172296A1
